Exercise: for every item that follows, state its recorded pIC50.
Biological target: Aurora A (Homo sapiens, UniProt O14965)
Sequence (O14965 whole entry): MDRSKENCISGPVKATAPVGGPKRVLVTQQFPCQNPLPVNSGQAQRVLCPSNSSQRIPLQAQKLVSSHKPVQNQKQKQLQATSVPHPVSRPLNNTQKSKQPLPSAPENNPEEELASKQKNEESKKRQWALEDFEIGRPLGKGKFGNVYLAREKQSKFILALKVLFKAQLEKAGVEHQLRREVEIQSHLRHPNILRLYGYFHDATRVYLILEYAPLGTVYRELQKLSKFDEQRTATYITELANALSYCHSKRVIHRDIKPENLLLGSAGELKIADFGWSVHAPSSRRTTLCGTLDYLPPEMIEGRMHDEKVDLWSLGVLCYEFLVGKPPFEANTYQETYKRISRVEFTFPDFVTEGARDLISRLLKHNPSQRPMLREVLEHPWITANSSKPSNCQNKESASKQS
Test: In vitro kinase assay, Aurora A
Details: recombinant protein (Upstate)
Answers are plain numbers, as −log10 of the molar value.

Reference set, count: 3
| MOLECULE | MEASUREMENT |
| --- | --- |
| CCC(=O)Nc1cc(NC(C)(C)C(=O)Nc2nc3ccc4[nH]ncc4c3s2)ccc1Cl [compound 129] | 6.95 |
| CC(=O)Nc1cc(NC2(C(=O)Nc3nc4ccc5[nH]ncc5c4s3)CC2)ccc1F [compound 120] | 6.79 |
| CC(C)CC(Nc1cccc(O)c1)C(=O)Nc1nc2ccc3[nH]ncc3c2s1 (stereo not shown) [compound 25] | 6.86 |

Attention now turns to another entry.
Req: Identify measured pIC50 corresponding to CC(C)(Nc1ccc(Cl)c(NS(C)(=O)=O)c1)C(=O)Nc1nc2c(C(F)(F)F)cc3[nH]ncc3c2s1 [compound 84]
Resp: 6.61

----------
Target: CDK3/Cyclin E complex (Homo sapiens, UniProt Q00526)
Sequence (Q00526 whole entry): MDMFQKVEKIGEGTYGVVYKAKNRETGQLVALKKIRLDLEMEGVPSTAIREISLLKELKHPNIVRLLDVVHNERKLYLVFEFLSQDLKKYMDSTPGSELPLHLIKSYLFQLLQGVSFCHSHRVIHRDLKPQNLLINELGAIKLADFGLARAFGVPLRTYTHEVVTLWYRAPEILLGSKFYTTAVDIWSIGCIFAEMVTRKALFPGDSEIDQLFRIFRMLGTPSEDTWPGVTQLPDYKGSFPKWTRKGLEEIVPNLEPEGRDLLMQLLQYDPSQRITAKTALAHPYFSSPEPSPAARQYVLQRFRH
Sequence (P24864 whole entry partner): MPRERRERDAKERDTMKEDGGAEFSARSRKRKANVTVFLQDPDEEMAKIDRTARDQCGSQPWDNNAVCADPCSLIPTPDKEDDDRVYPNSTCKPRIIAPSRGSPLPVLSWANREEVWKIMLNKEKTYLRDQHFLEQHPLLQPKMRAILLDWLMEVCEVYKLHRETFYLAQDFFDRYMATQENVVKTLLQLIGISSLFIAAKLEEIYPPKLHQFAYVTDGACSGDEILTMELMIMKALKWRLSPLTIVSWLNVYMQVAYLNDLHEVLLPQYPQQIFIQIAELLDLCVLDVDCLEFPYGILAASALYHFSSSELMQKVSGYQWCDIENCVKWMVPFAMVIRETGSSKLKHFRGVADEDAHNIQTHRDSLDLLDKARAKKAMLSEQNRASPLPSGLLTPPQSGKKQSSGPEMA
Experiment: In vitro kinase assay, CDK3/Cyclin E complex
Conditions: recombinant protein (Upstate); read-out: CDK3/cyclinE IC50
Exercise: for every item that follows, state its recorded IC50.
Numbers only, in nM.

Reference set, count: 3
| SMILES | IC50, nM |
| --- | --- |
| CCOC(=O)c1cc(NC2(C(=O)Nc3nc4ccc5[nH]ncc5c4s3)CC2)ccc1Cl | 169 |
| CCC(=O)Nc1cc(NC(C)(C)C(=O)Nc2nc3c(C(F)(F)F)cc4[nH]ncc4c3s2)ccc1Cl | 304 |
| CC(C)(Nc1cccc(F)c1)C(=O)Nc1nc2c(C(F)(F)F)cc3[nH]ncc3c2s1 | 371 |

I'm hoping you can list IC50 for every compound here, please.
1. O=C(CNc1ccc2cn[nH]c2c1)Nc1nc2ccc3[nH]ncc3c2s1
2. CC(=O)Nc1cc(NC(C)(C)C(=O)Nc2nc3ccc4[nH]ncc4c3s2)ccc1Cl

Resp:
[88, 61]

I'm hoping you can list IC50 for every compound here, please.
1. CC(=O)Nc1cccc(NCC(=O)Nc2nc3ccc4[nH]ncc4c3s2)c1
2. O=C(Nc1nc2ccc3[nH]ncc3c2s1)C1(Nc2ccc(Cl)cc2)CCCC1
3. CC(C)(Nc1cccc(C(=O)NCC(=O)OCCO)c1)C(=O)Nc1nc2c(C(F)(F)F)cc3[nH]ncc3c2s1

Resp:
1: 153; 2: 217; 3: 85

----------
Biological target: CDK1/Cyclin B complex (Homo sapiens, UniProt P06493)
Sequence (P06493 whole entry): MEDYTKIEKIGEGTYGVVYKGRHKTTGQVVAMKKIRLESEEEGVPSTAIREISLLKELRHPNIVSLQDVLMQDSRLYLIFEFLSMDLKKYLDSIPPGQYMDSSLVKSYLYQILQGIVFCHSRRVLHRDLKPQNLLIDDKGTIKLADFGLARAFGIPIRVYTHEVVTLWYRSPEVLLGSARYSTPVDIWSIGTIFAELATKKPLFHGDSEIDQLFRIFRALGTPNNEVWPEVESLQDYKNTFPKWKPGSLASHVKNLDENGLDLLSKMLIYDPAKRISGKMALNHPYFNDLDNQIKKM
Sequence (P14635 whole entry partner): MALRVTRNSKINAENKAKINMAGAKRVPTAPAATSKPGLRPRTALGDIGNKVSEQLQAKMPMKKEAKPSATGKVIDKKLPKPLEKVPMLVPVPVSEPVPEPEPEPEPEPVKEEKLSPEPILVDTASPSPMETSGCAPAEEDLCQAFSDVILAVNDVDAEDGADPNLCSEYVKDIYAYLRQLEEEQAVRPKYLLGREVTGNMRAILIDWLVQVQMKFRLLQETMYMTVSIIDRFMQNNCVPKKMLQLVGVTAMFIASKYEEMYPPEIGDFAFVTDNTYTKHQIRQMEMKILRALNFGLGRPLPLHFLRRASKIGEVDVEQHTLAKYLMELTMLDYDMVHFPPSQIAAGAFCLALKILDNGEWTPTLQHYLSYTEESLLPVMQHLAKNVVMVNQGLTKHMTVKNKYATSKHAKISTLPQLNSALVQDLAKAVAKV
Assay: In vitro kinase assay, CDK1/Cyclin B complex
Settings: recombinant protein (Upstate)
Description: Inhibitory activity against Aurora A, CDK1/Cyclin B complex, CDK2/Cyclin E complex and CDK3/Cyclin E complex were measured by in vitro kinase assay using recombinant proteins. The assays were carried out by using recombinant proteins (Upstate Inc.) for Aurora A, CDK1/Cyclin B complex, CDK2/Cyclin E complex and CDK3/Cyclin E complex (respective cat. nos. 14-511, 14-450, 14-448 and 14-487), in accordance with the procedure described in the product instructions thereof. […]
ASSAY READOUT: pIC50
Give bare numbers, as −log10 of the molar value.

| COMPOUND | pIC50 |
| --- | --- |
| CC(=O)Nc1cc(NC(C)(C)C(=O)Nc2nc3c(C(F)(F)F)cc4[nH]ncc4c3s2)ccc1Cl | 6.38 |
| CC(C)(Nc1ccc(Cl)c(C(=O)O)c1)C(=O)Nc1nc2c(C(F)(F)F)cc3[nH]ncc3c2s1 | 6.35 |
| O=C(Nc1nc2ccc3[nH]ncc3c2s1)C1(Nc2ccc(Cl)cc2)CC1 | 6.45 |
| O=C(Nc1nc2ccc3[nH]ncc3c2s1)C(CO)Nc1ccc(Cl)cc1 (stereo not shown) | 6.42 |
| O=C(Nc1nc2ccc3[nH]ncc3c2s1)C1(Nc2cccc(O)c2)CC1 | 6.71 |
| CC(=O)Nc1cc(NC(C)(C)C(=O)Nc2nc3c(C(F)(F)F)cc4[nH]ncc4c3s2)ccc1F | 6.42 |
| CC(C)(Nc1ccc(Cl)c(C(=O)NCCCS(N)(=O)=O)c1)C(=O)Nc1nc2c(C(F)(F)F)cc3[nH]ncc3c2s1 | 6.98 |
| CCNC(=O)c1cc(NC(C)(C)C(=O)Nc2nc3c(C(F)(F)F)cc4[nH]ncc4c3s2)ccc1Cl | 7.14 |
| CC(C)(Nc1ccc(Cl)c(C(=O)NC2CC2)c1)C(=O)Nc1nc2c(C(F)(F)F)cc3[nH]ncc3c2s1 | 6.89 |

Attention now turns to another entry.
Req: Identify measured pIC50 corresponding to CC(C)(Nc1ccc(Cl)c(O)c1)C(=O)Nc1nc2c(C(F)(F)F)cc3[nH]ncc3c2s1
Resp: 6.98
